Reported solubility values for the following molecules.
- assay protocol: Solubility was determined
- Assay type: physicochemical

Below are worked cases with known answers.
molecule	result
OCCCSc1c(O)nc2ccc(C(F)(F)F)cc2c1-c1cc(Cl)ccc1O	3 µg/mL
OCC(O)CSc1c(O)nc2ccc(C(F)(F)F)cc2c1-c1cc(Cl)ccc1O (stereo unspecified)	190 µg/mL
CC(C)(C)Sc1c(O)nc2ccc(C(F)(F)F)cc2c1-c1cc(Cl)ccc1O	< 1 µg/mL
OCCSc1c(O)nc2ccc(C(F)(F)F)cc2c1-c1cc(Cl)ccc1O	4 µg/mL
CSc1c(O)nc2ccc(C(F)(F)F)cc2c1-c1cc(Cl)ccc1O	< 1 µg/mL

Next item in the queue.
Report measured solubility; entry is `Oc1ccc(Cl)cc1-c1c(S)c(O)nc2ccc(C(F)(F)F)cc12`
3 µg/mL

All figures here come from ChEMBL document CHEMBL1137183.
